# Target Or Test System: PRMT5/MEP50 (Homo sapiens)
# Construct: Expressed full-length human Flag-PRMT5/6His-MeP50 protein complex was purified; made in house; host or cells: Spodoptera frugiperda (SF9) insect cells, baculovirus (pDEST8)
# Sequence (O14744 with tags, fused parts or gaps): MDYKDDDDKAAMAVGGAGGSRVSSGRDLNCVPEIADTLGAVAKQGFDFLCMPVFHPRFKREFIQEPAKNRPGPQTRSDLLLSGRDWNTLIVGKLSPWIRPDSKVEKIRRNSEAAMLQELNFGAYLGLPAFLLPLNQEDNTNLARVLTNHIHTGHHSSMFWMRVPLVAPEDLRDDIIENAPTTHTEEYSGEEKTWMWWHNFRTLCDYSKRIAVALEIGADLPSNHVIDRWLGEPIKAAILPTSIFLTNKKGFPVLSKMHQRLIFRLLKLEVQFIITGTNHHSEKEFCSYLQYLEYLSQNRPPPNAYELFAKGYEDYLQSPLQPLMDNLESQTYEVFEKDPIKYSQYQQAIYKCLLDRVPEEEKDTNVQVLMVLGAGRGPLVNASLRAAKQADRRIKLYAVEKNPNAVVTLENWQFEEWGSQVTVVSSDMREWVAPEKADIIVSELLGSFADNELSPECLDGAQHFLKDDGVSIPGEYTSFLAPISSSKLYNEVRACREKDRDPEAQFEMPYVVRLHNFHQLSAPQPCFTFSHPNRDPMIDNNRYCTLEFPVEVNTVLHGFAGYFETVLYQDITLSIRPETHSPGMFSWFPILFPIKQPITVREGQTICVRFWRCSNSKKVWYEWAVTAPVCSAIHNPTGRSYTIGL
# Sequence (Q9BQA1 with tags, fused parts or gaps partner limits assumed): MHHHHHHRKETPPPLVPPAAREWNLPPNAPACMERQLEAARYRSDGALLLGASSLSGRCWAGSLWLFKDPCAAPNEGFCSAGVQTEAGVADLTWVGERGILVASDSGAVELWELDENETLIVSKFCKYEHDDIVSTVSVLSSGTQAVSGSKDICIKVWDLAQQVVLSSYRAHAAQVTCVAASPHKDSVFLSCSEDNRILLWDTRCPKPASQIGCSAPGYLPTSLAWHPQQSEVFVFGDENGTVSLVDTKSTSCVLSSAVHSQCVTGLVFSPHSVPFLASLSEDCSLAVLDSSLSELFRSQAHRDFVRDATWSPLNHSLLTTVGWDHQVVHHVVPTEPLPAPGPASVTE
# Experiment Description: PRMT5 Biochemical Assay (PRMT5/MEP50 enzyme assay on peptide substrate, 3H-SAM Flashplate)
# Condition: Table D-2; read-out: Biochemical IC50
pIC50: −log10 of the molar value.
pIC50 for assorted compounds

Compound	Target Or Test System	pIC50
Cn1ccc2ccc(-c3cccc(OCC(O)CN4CCc5ccccc5C4)c3)cc21 (stereo not drawn)	PRMT5/MEP50 (Homo sapiens)	6.00 to 7.00
Cn1ccc2cnc(-c3cccc(OCC(O)CN4CCc5ccccc5C4)c3)nc21 (stereo not drawn)	PRMT5/MEP50 (Homo sapiens)	> 7.00
Cn1cnc2ccc(-c3cccc(OCC(O)CN4CCc5ccccc5C4(C)C)c3)cc21 (stereo not drawn)	PRMT5/MEP50 (Homo sapiens)	5.00 to 6.00
Cn1cnc2ccc(-c3cccc(OCC(O)CN4CCc5c(Cl)cccc5C4)c3)cc21 (stereo not drawn)	PRMT5/MEP50 (Homo sapiens)	5.00 to 6.00
CN1CCC(n2cnc3ccc(-c4ccnc(NCC(O)CN5CCc6ccccc6C5)c4)cc32)CC1 (stereo not drawn)	PRMT5/MEP50 (Homo sapiens)	> 7.00
O=C(Cn1ccc2cnc(-c3ccnc(NCC(O)CN4CCc5ccccc5C4)c3)nc21)N1CCCCC1 (stereo not drawn)	PRMT5/MEP50 (Homo sapiens)	> 7.00
Cn1ccc2ccc(-c3ccnc(NCC(O)CN4CCc5ccccc5C4)c3)cc21 (stereo not drawn)	PRMT5/MEP50 (Homo sapiens)	> 7.00
OC(COc1cccc(-c2ccc3ncn(C4COC4)c3c2)c1)CN1CCc2ccccc2C1 (stereo not drawn)	PRMT5/MEP50 (Homo sapiens)	> 7.00
CN(C(=O)c1cocn1)c1cccc(OCC(O)CN2CCc3ccccc3C2)c1 (stereo not drawn)	PRMT5/MEP50 (Homo sapiens)	4.40 to 5.00
OC(COC1CCN(c2ccccc2)C1)CN1CCc2ccccc2C1 (stereo not drawn)	PRMT5/MEP50 (Homo sapiens)	5.00 to 6.00
OC(COc1ccc(-n2cncn2)cc1)CN1CCc2ccccc2C1 (stereo not drawn)	PRMT5/MEP50 (Homo sapiens)	5.00 to 6.00
O=C1COc2ccc(-c3cccc(OCC(O)CN4CCc5ccccc5C4)c3)cc2N1 (stereo not drawn)	PRMT5/MEP50 (Homo sapiens)	6.00 to 7.00
CN1CCC(OCC(O)CN2CCc3ccccc3C2)CC1 (stereo not drawn)	PRMT5/MEP50 (Homo sapiens)	< 4.40
Cn1cc2cc(-c3cccc(OCC(O)CN4CCc5ccccc5C4)c3)ccc2n1 (stereo not drawn)	PRMT5/MEP50 (Homo sapiens)	5.00 to 6.00
O=c1[nH]c2ccc(-c3cccc(OCC(O)CN4CCc5ccccc5C4)c3)cc2[nH]1 (stereo not drawn)	PRMT5/MEP50 (Homo sapiens)	6.00 to 7.00

* * *

EC50 for assorted compounds
# System: Z-138 cells
# Experiment Description: Z-138 Methylation Assay (In Cell Western for symmetric di-methyl arginine and DNA content)
# Type: cell-based
# Condition: Homo sapiens, Table D-2, read-out: ICW EC50
# Experimental: Z-138 suspension cells were purchased from ATCC (American Type Culture Collection, Manassas, Va.). […] First, the ratio for each well was determined by: Each plate included fourteen control wells of DMSO only treatment (minimum inhibition) as well as fourteen control wells for maximum inhibition treated with 3 μM of a reference compound (Background wells). The average of the ratio values for each control type was calculated and used to determine the percent inhibition for each test well in the plate. […]

Compound	EC50
Cn1cc2ccc(-c3ccnc(NCC(O)CN4CCc5ccccc5C4)c3)cc2n1 (stereo not drawn)	101 to 1000 nM
Cn1cnc2ccc(-c3cc(NCC(O)CN4CCc5ccccc5C4)ncn3)cc21 (stereo not drawn)	101 to 1000 nM
OC(CNc1cc(-c2ncc3ccn(C4CCNCC4)c3n2)ccn1)CN1CCc2ccccc2C1 (stereo not drawn)	< 100 nM
Cn1cnc2ccc(-c3cncc(NCC(O)CN4CCc5ccccc5C4)n3)cc21 (stereo not drawn)	101 to 1000 nM
CC(C)n1cnc2ccc(-c3cccc(OCC(O)CN4CCc5ccccc5C4)c3)cc21 (stereo not drawn)	101 to 1000 nM
O=C(Nc1cccc(OCC(O)CN2CCc3ccccc3C2)c1)c1cncnc1 (stereo not drawn)	1000 to 10000 nM
